Exam item: assign Y to entries whose melting point is below 100 °C and N to entries at or above 100 °C. Note that a value of exactly 100 °C receives N.

STRUCTURE NOTATION	CAT
C[C@H]1CN(c2ccc3ccccc3n2)CCN1CCCCC1(C(=O)NCc2ccc(F)cc2)c2ccccc2-c2ccccc21	N
CCCNC(=O)C1(CCCCN2CCN(c3nc4ccccc4n3C)CC2)c2ccccc2-c2ccccc21	N
O=C(NCC(F)(F)F)C1(CCCCN2CCN(c3ccc4cccc(O)c4n3)CC2)c2ccccc2-c2ccccc21	N

IN: Please determine if C[C@@H]1CN(c2nc3ccccc3s2)C[C@H](C)N1CCCCC1(C(=O)NCC(F)(F)F)c2ccccc2Oc2ccccc21 is below 100 °C in terms of melting point.
OUT: N

IN: Please determine if Cn1c(N2CCN(CCCCC3(C(=O)NCC(F)(F)F)c4ccccc4-c4ccccc43)CC2)nc2cc(F)ccc21 is below 100 °C in terms of melting point.
OUT: Y
